The values you see were collected from ChEMBL document CHEMBL1138973.

biological target: Mu-type opioid receptor (Cavia porcellus, UniProt P97266)
Sequence (P97266 whole entry): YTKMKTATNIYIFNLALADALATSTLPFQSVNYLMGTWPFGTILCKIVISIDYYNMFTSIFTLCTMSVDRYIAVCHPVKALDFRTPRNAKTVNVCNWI
Reported values of pKi for individual entries
// scale note: pKi = -log10(conc_M); give the bare number

samplesmiles=COc1ccc2c3c1O[C@H]1[C@@H](OS(=O)(=O)O)C=C[C@H]4[C@@H](C2)N(C)CC[C@@]341 target="Mu-type opioid receptor (Cavia porcellus, UniProt P97266)" observedvalue=7.41
samplesmiles=CN1CC[C@]23c4c5ccc(OC(=O)c6ccccc6)c4O[C@H]2[C@@H](OS(=O)(=O)O)CC[C@H]3[C@H]1C5 target="Mu-type opioid receptor (Cavia porcellus, UniProt P97266)" observedvalue=7.21

Send back Mu-type opioid receptor (Cavia porcellus, UniProt P97266) pKi of CN1CC[C@]23c4c5ccc(O)c4O[C@H]2[C@@H](OS(=O)(=O)O)CC[C@H]3[C@H]1C5 only.
8.82

Please tell me the measured pKi for CC(=O)Oc1ccc2c3c1O[C@H]1[C@@H](OS(=O)(=O)O)C=C[C@H]4[C@@H](C2)N(C)CC[C@@]341 ; system: Mu-type opioid receptor (Cavia porcellus, UniProt P97266).
9.10

====

# Mu-type opioid receptor (Cavia porcellus, UniProt P97266): Ki values follow
Please reply with the bare figure in nM and do not write the unit itself.

Worked examples follow.
compound=CC(=O)Oc1ccc2c3c1O[C@H]1[C@@H](OS(=O)(=O)O)CC[C@H]4[C@@H](C2)N(C)CC[C@@]341 metric=Ki resultunit=nM observedvalue=13.7
compound="C=CCN1CCC23c4c5ccc(O)c4O[C@@H]2/C(=N/NC(=O)c2ccccc2)CCC3(O)C1C5 (some centres not stated)" metric=Ki resultunit=nM observedvalue=0.2
compound=CC(=O)Oc1ccc2c3c1O[C@H]1[C@@H](OS(=O)(=O)[O-])C=C[C@H]4[C@@H](C2)[N+](C)(C)CC[C@@]341 metric=Ki resultunit=nM observedvalue=34.2
compound=CN1CC[C@]23c4c5ccc(OS(=O)(=O)O)c4O[C@H]2[C@@H](O)C=C[C@H]3[C@H]1C5 metric=Ki resultunit=nM observedvalue=101
compound=CN1CC[C@]23c4c5ccc(O)c4O[C@H]2[C@@H](OS(=O)(=O)O)C=C[C@H]3[C@H]1C5 metric=Ki resultunit=nM observedvalue=0.9
compound=COc1ccc2c3c1O[C@H]1[C@@H](OS(=O)(=O)O)CC[C@H]4[C@@H](C2)N(C)CC[C@@]341 metric=Ki resultunit=nM observedvalue=196

# return recorded Ki for entry CC(C)C(=O)Oc1ccc2c3c1O[C@H]1[C@@H](OS(=O)(=O)O)C=C[C@H]4[C@@H](C2)N(C)CC[C@@]341
19.8

====

assay: Plasma half life in rat; assay type: ADME, organism-based
metric: half-life

A selection of reference data follows.
samplesmiles=CC(=O)Oc1ccc2c3c1O[C@H]1[C@@H](OS(=O)(=O)O)CC[C@H]4[C@@H](C2)N(C)CC[C@@]341 observedvalue="> 1 h"
samplesmiles=CC(=O)Oc1ccc2c3c1O[C@H]1[C@@H](OS(=O)(=O)[O-])C=C[C@H]4[C@@H](C2)[N+](C)(C)CC[C@@]341 observedvalue="> 1 h"

Next item in the queue.
Determine its reported half-life: CC(=O)Oc1ccc2c3c1O[C@H]1[C@@H](OS(=O)(=O)O)C=C[C@H]4[C@@H](C2)N(C)CC[C@@]341
> 1 h

====

target: Kappa-type opioid receptor (Cavia porcellus)
Sequence (P41144 whole entry): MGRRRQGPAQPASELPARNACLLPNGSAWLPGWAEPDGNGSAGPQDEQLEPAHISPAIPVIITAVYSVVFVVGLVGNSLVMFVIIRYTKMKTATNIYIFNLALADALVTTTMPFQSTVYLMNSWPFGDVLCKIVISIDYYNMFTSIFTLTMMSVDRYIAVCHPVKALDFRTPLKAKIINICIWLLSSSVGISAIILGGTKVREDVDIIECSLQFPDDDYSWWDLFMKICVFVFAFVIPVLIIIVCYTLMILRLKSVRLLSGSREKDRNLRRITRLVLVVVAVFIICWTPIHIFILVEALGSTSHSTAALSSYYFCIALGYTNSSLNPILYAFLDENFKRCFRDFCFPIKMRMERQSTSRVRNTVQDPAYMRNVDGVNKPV
pKi: −log10 of the molar value.
Quick reference: pKi of the listed items.

Worked cases, answers included:
compound=C[N+]1(C)CC[C@]23c4c5ccc(OC(=O)c6ccccc6)c4O[C@H]2[C@@H](OS(=O)(=O)[O-])C=C[C@H]3[C@H]1C5 observedvalue="< 5.00"
compound=COc1ccc2c3c1O[C@H]1[C@@H](OS(=O)(=O)O)CC[C@H]4[C@@H](C2)N(C)CC[C@@]341 observedvalue="< 5.00"
compound=CC(=O)Oc1ccc2c3c1O[C@H]1[C@@H](OS(=O)(=O)O)CC[C@H]4[C@@H](C2)N(C)CC[C@@]341 observedvalue="< 5.00"
compound=CN1CC[C@]23c4c5ccc(OC(=O)c6ccccc6)c4O[C@H]2[C@@H](OS(=O)(=O)O)CC[C@H]3[C@H]1C5 observedvalue="< 5.00"
compound=CN1CC[C@]23c4c5ccc(OC(=O)c6ccccc6)c4O[C@H]2[C@@H](OS(=O)(=O)O)C=C[C@H]3[C@H]1C5 observedvalue="< 5.00"
compound="C=CCN1CCC23c4c5ccc(O)c4O[C@@H]2/C(=N/NC(=O)c2ccccc2)CCC3(O)C1C5 (stereo partly specified)" observedvalue=9.40
compound=CC1(C)SSC(C)(C)[C@@H](NC(=O)[C@@H](N)Cc2ccc(O)cc2)C(=O)NCC(=O)N[C@@H](Cc2ccc(Cl)cc2)C(=O)N[C@H]1C(=O)O observedvalue="< 5.00"
compound=COc1ccc2c3c1O[C@H]1[C@@H](OS(=O)(=O)O)C=C[C@H]4[C@@H](C2)N(C)CC[C@@]341 observedvalue="< 5.00"

For the compound CN1CC[C@]23c4c5ccc(O)c4O[C@H]2[C@@H](OS(=O)(=O)O)CC[C@H]3[C@H]1C5 , report pKi.
5.50

Using known records, supply pKi for CN1CC[C@]23c4c5ccc(OS(=O)(=O)O)c4O[C@H]2[C@@H](O)C=C[C@H]3[C@H]1C5
< 5.00

Tell me pKi reported for CC(=O)Oc1ccc2c3c1O[C@H]1[C@@H](OS(=O)(=O)[O-])C=C[C@H]4[C@@H](C2)[N+](C)(C)CC[C@@]341
< 5.00

====

Lab note: pKi readings collected with UniProt:P97266 for the following compounds.
Interpret pKi as the negative base-10 log of the concentration measured in mol/L.

Respond only with pKi recorded for C[N+]1(C)CC[C@]23c4c5ccc(OC(=O)c6ccccc6)c4O[C@H]2[C@@H](OS(=O)(=O)[O-])C=C[C@H]3[C@H]1C5
6.35

Output measured pKi for this item: CCC(=O)Oc1ccc2c3c1O[C@H]1[C@@H](OS(=O)(=O)O)C=C[C@H]4[C@@H](C2)N(C)CC[C@@]341
9.22

Name the recorded pKi of the item CN1CC[C@]23c4c5ccc(OC(=O)c6ccccc6)c4O[C@H]2[C@@H](OS(=O)(=O)O)C=C[C@H]3[C@H]1C5 in your answer.
7.43

Give pKi for CN1CC[C@]23c4c5ccc(OC(=O)C(C)(C)C)c4O[C@H]2[C@@H](OS(=O)(=O)O)C=C[C@H]3[C@H]1C5
9.15
